The reader will find reported composite z-score values listed item by item below.
experimentalSystem: Torsin-1A-interacting protein 1 (Homo sapiens)
methodNotes: compound microarray binding of lysate hLAP1 – cell lysate, small-molecule microarray, COS7 lysate, 635/667 nm fluorescence, primary screen (AID 1116)
statedConditions: 635 nm fluorescence, higher = more signal
Simply state the number, no unit and no words.

Cc1ccc(N2C(=O)c3ccccc3[C@@H](C(=O)NCCCN(C)C)[C@@H]2c2ccc(CO)cc2)nc1: 1.29
C=CCNC(=O)[C@H]1[C@@H]2C(=O)O[C@@H](c3ccccc3)[C@@H](c3ccccc3)N2[C@@H](c2ccccc2OCCO)[C@]12C(=O)N(C(=O)OCCOC)c1ccc(C#CC3(O)CCCCCC3)cc12: 1.22
C#CCN([C@@H](Cc1ccccc1)C(=O)OC)[C@@H](/C=C/C1CC1)[C@H](O)Cc1ccccc1: 0.483
C=CC[C@]1(C(=O)N2CCCCC2)N=C(c2ccc(OCCCO)cc2)O[C@H]1c1ccccc1CN=[N+]=[N-]: 0.447
CC[C@@H]1C=C(C(=O)O)[C@H](c2ccc(C#N)cc2)N1S(=O)(=O)c1ccc(C)cc1: 2.47
CC[C@@H]1C=C(C(=O)O)[C@H](c2ccccc2)N1S(=O)(=O)c1ccc(C)cc1: 0.599

Here is another molecule to look at.
The molecule CN1C(=O)C2C=CC(C(O)c3cccn3C)N(Nc3ccc([N+](=O)[O-])cc3[N+](=O)[O-])C2C1=O (configuration not stated) showed composite z-score equal to -0.0083

* * *

experimentalSystem: Neurogenic locus notch homolog protein 3 (Homo sapiens)
methodNotes: small molecules binding NOTCH3 protein – biochemical, 635/667 nm fluorescence, primary screen (AID 1096)
statedConditions: small-molecule microarray, 635 nm fluorescence, higher = more signal
measuredEndpoint: composite z-score
Simply state the number, no unit and no words.

Past entries and their recorded results:
O=C1OCCC=C[C@H]2OC34C=CCN(c5ccc6ccccc6c5)C(=O)[C@H]3N(CCCO)C(=O)[C@@H]4C12 (stereo not given in full): -1.19
COC(=O)[C@@]1(Cc2ccccc2)[C@H]2c3cc(C(=O)N4CCCC4)n(CCc4ccccn4)c3C[C@H]2CN1C(=O)c1ccccc1: 0.915
Cn1cccc1C(O)C1C=CC2C(=O)N(c3ccccc3)C(=O)C2N1Nc1ccccc1 (stereo not given): 1.02
CCCCC(CC)C(O)C1C=CC2C(=O)N(c3ccccc3)C(=O)C2N1Nc1ccc(C#N)cc1 (stereo not given): 1.04
C=C(COC)C(=O)CC[C@@H](OC(C)=O)c1cccc(OCCO)c1: -0.132
CCOC(=O)C[C@H]1[C@H](OC(=O)c2cc3ccccc3oc2=O)[C@@H](NC(=O)CC(C)C)c2cc(OCCCO)ccc2N1C(=O)c1ccc2ccccc2n1: 0.982
CCCCC(CC)C(O)C1C=CC2C(=O)N(C)C(=O)C2N1Nc1ccccc1 (stereo not given): 1.03
CCCN1C(=O)[C@]2(Cc3ccccc31)N=C(c1ccc(OCCCO)cc1)O[C@@H]2c1ccccc1: 1.03
CCCNC(=O)[C@@]1(C)c2ccccc2C(=O)N(c2ccc(C)cn2)[C@H]1c1ccc(CO)cc1: -0.0421
COCCOC(=O)N1C(=O)[C@@]2(c3cc(C#CCCO)ccc31)[C@H](C(=O)Nc1nc3ccccc3s1)[C@H]1C(=O)O[C@H](c3ccccc3)[C@H](c3ccccc3)N1[C@@H]2c1ccc(O)cc1: 1.03

The molecule O=C(Cc1ccccc1)[C@H]1C2C=CCCC(c3ccccc3)=C2CN1Cc1ccccc1 (stereo not given in full) showed composite z-score equal to -0.433

The molecule COCCOC(=O)N1C(=O)[C@@]2(c3cc(C#CC4=CCCCC4)ccc31)[C@H](c1ccccc1OCCO)N1[C@H](c3ccccc3)[C@H](c3ccccc3)OC(=O)[C@H]1[C@@H]2C(=O)NC[C@H](O)c1ccccc1 showed composite z-score equal to 1.07

The molecule NC(=O)NCC#Cc1ccc2c(c1)[C@]1(C(=O)N2)[C@H](c2ccccc2OCCO)N2[C@H](c3ccccc3)[C@H](c3ccccc3)OC(=O)[C@H]2[C@@H]1C(=O)O showed composite z-score equal to -0.199

The molecule CC[C@@H]1C=C(C(=O)O)[C@H](c2ccc(C#N)cc2)N1S(=O)(=O)c1ccc(C)cc1 showed composite z-score equal to 0.314

The molecule O=C(O)[C@@H]1C[C@@H]2C(=O)N3CCC[C@H]3C(=O)N2[C@@H]1c1ccc(O)cc1 showed composite z-score equal to 1.01

* * *

methodNotes: blood-stage malaria parasite viability loss – strain 3D7, DAPI fluorescence, 100 nL, primary screen (AID 1184);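 also: parasites grown inside human red blood cells in medium with human serum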
statedConditions: P. falciparum 3D7 growth, 3 d, higher = more signal
measuredEndpoint: z-score

Past entries and their recorded results:
O=C1OCCC/C=C\[C@H]2OC34C=CCN(c5ccc6ccccc6c5)C(=O)[C@H]3N(CCO)C(=O)[C@@H]4C12 (some centres undefined): -1.05
CCOC(=O)C[C@H]1[C@H](OC(=O)c2ccc(C(=O)c3ccccc3)cc2)[C@@H](NC(=O)CC(C)C)c2cc(OCCCO)ccc2N1C(=O)c1ccccc1: 1.38
Cc1ccc(N2C(=O)c3ccccc3[C@@H](C(=O)NCCCN(C)C)[C@@H]2c2ccc(CO)cc2)nc1: -0.235

Here is another compound to look at.
The compound C=C(/C(=C/C[C@H](OC(=O)c1ccncc1)c1ccc(CO)o1)c1cnc2ccccc2c1)C(C)C showed z-score equal to -0.137

* * *

The reader will find reported composite z-score values listed item by item below.
methodNotes: compounds binding Alexa647 anti-His antibody – biochemical, small-molecule microarray, 635 nm fluorescence, artefact control for SMM control protein annotation, primary screen (AID 1128);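 also: score merges feature fluorescence with signal-to-noise for each printed compound spot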
statedConditions: higher = more signal
Simply state the number, no unit and no words.

CN(C)C(=O)[C@@]1(Cc2ccccc2)N=C(c2ccc(OCCCO)cc2)O[C@H]1c1ccccc1: 2.33
COC(=O)[C@@]1(Cc2ccc(OC)cc2)[C@H]2c3cc(C(=O)N(C)C)n(Cc4ccc(OC(F)(F)F)cc4)c3C[C@H]2CN1C(=O)c1ccccc1: -0.399

The compound CC(C)C(CO)N1C(=O)[C@@H]2C3C(=O)OCCC/C=C\[C@H]3OC23C=CCN(c2ccc4ccccc4c2)C(=O)[C@@H]13 (stereo not given in full) showed composite z-score equal to -0.236

The compound CCC1=C2CN(Cc3ccccc3)[C@@H](C(=O)Cc3ccccc3)C2C=CCC1 (stereo not given in full) showed composite z-score equal to 0.797

The compound COCCOC(=O)N1C(=O)[C@@]2(c3cc(C#CCCO)ccc31)[C@H](c1ccc(OCCO)cc1)N1[C@H](c3ccccc3)[C@H](c3ccccc3)OC(=O)[C@H]1[C@@H]2C(=O)Nc1nc2ccccc2s1 showed composite z-score equal to 0.872

The compound COc1ccc(C#Cc2ccc3c(c2)[C@]2(C(=O)N3)[C@H](c3ccc(OCCO)cc3)N3[C@H](c4ccccc4)[C@H](c4ccccc4)OC(=O)[C@H]3[C@@H]2C(=O)NC[C@H](O)c2ccccc2)cc1 showed composite z-score equal to 0.825

The compound COc1ccc(CCNC(=O)[C@@]2(Cc3ccccc3I)c3ccccc3C(=O)N(C3CCCCC3)[C@H]2c2ccc(CO)cc2)cc1 showed composite z-score equal to 0.362

The compound CCCCC(O)C1C=CC2C(=O)N(C)C(=O)C2N1N(c1ccccc1)c1ccccc1 (stereo not given) showed composite z-score equal to 1.92

The compound COCCOC(=O)N1C(=O)[C@@]2(c3cc(C#CC4=CCCCC4)ccc31)[C@H](c1ccccc1OCCO)N1[C@H](c3ccccc3)[C@H](c3ccccc3)OC(=O)[C@H]1[C@@H]2C(=O)NC[C@H](O)c1ccccc1 showed composite z-score equal to 0.705

The compound [N-]=[N+]=Nc1ccccc1C[C@]1(C(=O)NCCN2CCOCC2)COC(c2ccc(OCCCO)cc2)=N1 showed composite z-score equal to 1.34

The compound O=C(O)[C@@H]1C[C@@H]2C(=O)N3CCC[C@H]3C(=O)N2[C@@H]1c1ccc(O)cc1 showed composite z-score equal to 2.3

The compound CCOC(=O)C1=CC[C@@H](c2ccccc2)N(S(=O)(=O)c2ccc(C)cc2)[C@H]1c1ccccc1 showed composite z-score equal to 0.271

The compound COCC(=C=CC[C@H](O)c1ccc(CO)o1)CCO showed composite z-score equal to 1.28

The compound COc1ccc(CCNC(=O)[C@@H]2c3ccccc3C(=O)N(C3CCCCC3)[C@H]2c2ccc(CO)cc2)cc1 showed composite z-score equal to 1.01

The compound C=C(/C(=C/C[C@H](OC(C)=O)c1ccc(CO)o1)c1cnc2ccccc2c1)C(C)C showed composite z-score equal to 1.07

* * *

The reader will find reported composite z-score values listed item by item below.
experimentalSystem: Dihydroorotate dehydrogenase (quinone), mitochondrial (Plasmodium falciparum (isolate 3D7)) (UniProt Q08210)
Sequence (Q08210 whole entry, looked up): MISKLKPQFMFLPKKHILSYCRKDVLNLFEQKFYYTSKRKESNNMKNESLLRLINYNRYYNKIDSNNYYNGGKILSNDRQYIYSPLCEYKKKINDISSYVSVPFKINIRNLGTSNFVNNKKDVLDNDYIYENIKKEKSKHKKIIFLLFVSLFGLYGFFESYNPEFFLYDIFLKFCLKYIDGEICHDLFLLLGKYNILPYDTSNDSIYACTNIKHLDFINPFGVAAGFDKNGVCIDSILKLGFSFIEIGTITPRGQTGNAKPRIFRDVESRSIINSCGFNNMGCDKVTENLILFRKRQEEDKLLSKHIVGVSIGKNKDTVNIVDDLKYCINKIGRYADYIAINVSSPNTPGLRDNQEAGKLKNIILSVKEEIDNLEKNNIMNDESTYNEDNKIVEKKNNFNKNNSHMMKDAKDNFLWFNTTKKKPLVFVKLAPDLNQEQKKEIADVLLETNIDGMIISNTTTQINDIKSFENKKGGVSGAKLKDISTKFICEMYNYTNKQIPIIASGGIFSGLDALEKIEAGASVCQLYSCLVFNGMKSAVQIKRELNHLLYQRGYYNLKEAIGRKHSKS
methodNotes: inhibition of P. falciparum DHODH – biochemical, C-terminal His tag, absorbance 600 nm, primary screen (AID 1175);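 also: recombinant parasite enzyme with a five histidine tag at its C terminus; test concentration not given here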
statedConditions: PfDHODH enzyme, DCIP absorbance 600 nm; higher = more signal, called active from +8 up or from −8 down
Simply state the number, no unit and no words.

C=C(COC)/C(=C/C[C@H](OC(=O)c1ccncc1)c1ccccc1OCCO)c1cc(C(=O)OC)ccc1OC: -2.32

The compound C#CCN(Cc1ccccc1Br)[C@H](/C=C/c1ccccc1)[C@@H](O)Cc1ccccc1 showed composite z-score equal to 0.342

The compound CCCCNC(=O)c1ccc(C#CC(C)(C)C)c(OC(C)=O)c1 showed composite z-score equal to -1.14

Recorded values, source PubChem BioAssay.
